Taken from PubChem BioAssay (NCI).

Reported TGI values follow for various compounds
Test system: SF-268 CNS
assay.name: NCI tumour cell line growth inhibition, 48 h

compound	TGI
CC(C)CCC[C@@H](C)C1CCC2[C@@H]3CC=C4C[C@@H](C(=O)NCC[N+](C)(C)CCCS(=O)(=O)[O-])CC[C@]4(C)C3CC[C@@]21C (stereo partly drawn)	37.8 µM
Cc1nc(C(N)=S)sc1C(/C=C/c1ccc(Cl)c(Cl)c1)=N/NC(C)(C)C	> 100 µM
Cc1nn(C(=O)c2ccncc2)c2c1C(c1ccccc1)SC(N)=N2 (stereo not drawn)	> 10 µM

For record Cc1ccc([N+](=O)[O-])cc1S(=O)(=O)Nc1ccc(C2=NNC(c3ccccc3O)C2)cc1 (stereo not drawn) the listed TGI is > 100 µM

For record O=C(/C=C/C=C/c1c(C2CC2)nc2ccccc2c1-c1ccc(F)cc1)c1cccs1 the listed TGI is > 100 µM

For record COc1cc(/C=C/c2cc(/C=C/c3ccc(O)c(OC)c3)nc(N)n2)ccc1O the listed TGI is 15.6 µM

For record COc1cc(C2SC(N)=Nc3c2c(C)nn3C(=O)c2ccccc2O)ccc1O (stereo not drawn) the listed TGI is > 10 µM

For record S=P1(N2CCCCC2)Oc2ccc3ccccc3c2-c2c(ccc3ccccc23)O1 the listed TGI is > 100 µM

For record CN(C)CC1COC2Cc3ccccc3C1O2 (stereo not drawn) the listed TGI is > 100 µM

For record N#CC(C#N)=C(N)/C(C#N)=C/c1ccc2ccccc2n1 the listed TGI is > 100 µM

For record Cc1nc([C@H]2CC[C@H]3[C@@H]4CCC5=CC(=O)CC[C@]5(C)[C@H]4CC[C@]23C)cs1 the listed TGI is > 100 µM

For record O=C(O)/C(Cl)=C(\Cl)C(=O)NC1C2CC3CC(C2)CC1C3 (stereo not drawn) the listed TGI is > 100 µM

For record Cc1cc(O)c(C2=NN(c3ccc(S(N)(=O)=O)cc3)C(c3ccc(N(C)C)cc3)C2)c(C)c1Cl (stereo not drawn) the listed TGI is 37.2 µM
